Settings: in dichloromethane, 278.15 K
property.label: solubility (mole fraction)
The response must contain the number and no unit.

input: Can you look up the measured solubility (mole fraction) of `N#CCC(N)=O` for me?
output: 0.000388

* * *

Conditions: in 1,4-dioxane, 303.15 K
property.label: solubility (mole fraction)
The response must contain the number and no unit.

input: Can you look up the measured solubility (mole fraction) of `N#CCC(N)=O` for me?
output: 0.0226

* * *

Conditions: in n-propanol, 308.15 K
property.label: solubility (mole fraction)
The response must contain the number and no unit.

input: Can you look up the measured solubility (mole fraction) of `N#CCC(N)=O` for me?
output: 0.0117

* * *

Details: in chloroform, 278.15 K
property.label: solubility (mole fraction)
The response must contain the number and no unit.

input: Can you look up the measured solubility (mole fraction) of `N#CCC(N)=O` for me?
output: 0.000465

* * *

Conditions: in dichloromethane, 273.15 K
property.label: solubility (mole fraction)
The response must contain the number and no unit.

input: Can you look up the measured solubility (mole fraction) of `N#CCC(N)=O` for me?
output: 0.000321

* * *

Conditions: in ethanol, 318.15 K
property.label: solubility (mole fraction)
The response must contain the number and no unit.

input: Can you look up the measured solubility (mole fraction) of `N#CCC(N)=O` for me?
output: 0.0277

* * *

Conditions: in DMF, 303.15 K
property.label: solubility (mole fraction)
The response must contain the number and no unit.

input: Can you look up the measured solubility (mole fraction) of `N#CCC(N)=O` for me?
output: 0.325

* * *

Conditions: in THF, 293.15 K
property.label: solubility (mole fraction)
The response must contain the number and no unit.

input: Can you look up the measured solubility (mole fraction) of `N#CCC(N)=O` for me?
output: 0.0164

* * *

Conditions: in dichloromethane, 293.15 K
property.label: solubility (mole fraction)
The response must contain the number and no unit.

input: Can you look up the measured solubility (mole fraction) of `N#CCC(N)=O` for me?
output: 0.000668

* * *

Conditions: in THF, 308.15 K
property.label: solubility (mole fraction)

input: Can you look up the measured solubility (mole fraction) of `N#CCC(N)=O` for me?
output: 0.0236

* * *

Conditions: in n-butanol, 273.15 K
property.label: solubility (mole fraction)
The response must contain the number and no unit.

input: Can you look up the measured solubility (mole fraction) of `N#CCC(N)=O` for me?
output: 0.00201

* * *

Details: in DMF, 278.15 K
property.label: solubility (mole fraction)
The response must contain the number and no unit.

input: Can you look up the measured solubility (mole fraction) of `N#CCC(N)=O` for me?
output: 0.262

* * *

Conditions: in DMF, 298.15 K
property.label: solubility (mole fraction)
The response must contain the number and no unit.

input: Can you look up the measured solubility (mole fraction) of `N#CCC(N)=O` for me?
output: 0.309

* * *

Details: in chloroform, 273.15 K
property.label: solubility (mole fraction)
The response must contain the number and no unit.

input: Can you look up the measured solubility (mole fraction) of `N#CCC(N)=O` for me?
output: 0.000389

* * *

Details: in ethyl acetate, 298.15 K
property.label: solubility (mole fraction)

input: Can you look up the measured solubility (mole fraction) of `N#CCC(N)=O` for me?
output: 0.00951
